# System: HIV-1 wild type
# METHOD DESCRIPTION: microbe, parasite or virus in culture
# Type: cell-based
# CONDITIONS: wild type; read-out: EC50 WT RT
pEC50: −log10 of the molar value.
READOUT KIND: pEC50

CCN1c2ncc(CCOc3ccc(-c4ccc(C(=O)O)cc4)c(C)c3)cc2C(=O)N(C)c2cccnc21
7.30 to 8.00
Cc1cc(-c2ccc(CC(=O)O)cc2)ccc1OCCc1cnc2c(c1)C(=O)N(C)c1cccnc1N2
> 8.00

Challenge: If you can, please state the reported pEC50 value of CCN1c2ncc(CCOc3ccc(-c4cccc(CC(=O)O)c4)cc3)cc2C(=O)N(C)c2cccnc21 .
Response given: > 8.00

Challenge: I have this compound here, CCN1c2ncc(CCOc3ccc(-c4ccc(CC(=O)O)cc4)cc3C)cc2C(=O)N(C)c2cccnc21 , and I need its recorded pEC50.
Response given: > 8.00

---

# ASSAY TARGET: HIV-1 RT double mutant K103N/Y181C (Human immunodeficiency virus type 1 group M subtype B, UniProt P03366, K702N/Y780C)
# Construct: HIV-1 wild type reverse transcriptase as well as the clinically significant double mutant K103N/Y181C
# METHOD DESCRIPTION: biochemical
# CONDITIONS: RT double mutant K103N/Y181C; read-out: IC50 K103N/Y181C
READOUT KIND: IC50

# count of solved cases: 3
CCN1c2ncc(CCOc3ccc(C(=O)Nc4ccc(C(=O)O)cc4)cc3C)cc2C(=O)Nc2c(C)ccnc21
< 50 nM
CCN1c2ncc(CCOc3ccc(-c4ccc(N)nc4C)cc3C)cc2C(=O)N(C)c2cccnc21
< 50 nM
CCN1c2ncc(CCOc3ccc(-c4ccc(CCC(=O)O)o4)cc3C)cc2C(=O)N(C)c2cccnc21
> 100 nM

Challenge: Given the compound CCN1c2ncc(CCOc3ccc(-c4ccccc4)cc3)cc2C(=O)N(C)c2cccnc21 , what is its reported IC50?
Response given: 50 to 100 nM

Challenge: What value of IC50 has been recorded for this entry: CCN1c2ncc(CCOc3ccc(-c4cc[n+]([O-])c(C)c4)cc3C)cc2C(=O)N(C)c2cccnc21
Response given: < 50 nM

Challenge: Entry CCN1c2ncc(CCOc3ccc(C(=O)Nc4ccc[n+]([O-])c4)cc3C)cc2C(=O)Nc2c(C)ccnc21 : reported IC50 = ?
Response given: < 50 nM

---

# ASSAY TARGET: HIV-1 RT double mutant K103N/Y181C (Human immunodeficiency virus type 1 group M subtype B, UniProt P03366, K702N/Y780C)
# Construct: HIV-1 wild type reverse transcriptase as well as the clinically significant double mutant K103N/Y181C
# METHOD DESCRIPTION: biochemical
# CONDITIONS: RT double mutant K103N/Y181C; read-out: IC50 K103N/Y181C
pIC50: −log10 of the molar value.
READOUT KIND: pIC50

Some solved entries appear below for comparison.
CCN1c2ncc(CCOc3ccc(-c4cccc(CC(=O)O)c4)cc3)cc2C(=O)N(C)c2cccnc21
< 7.00
CCN1c2ncc(CCOc3ccc(-c4ccc(CC(=O)O)cc4C)cc3C)cc2C(=O)N(C)c2cccnc21
7.00 to 7.30
CCN1c2ncc(CCOc3ccc(-c4ccc(N)nc4)cc3C)cc2C(=O)N(C)c2cccnc21
> 7.30
CCN1c2ncc(CCOc3ccc(C(=O)NN)cc3C)cc2C(=O)Nc2c(C)ccnc21
7.00 to 7.30
CCN1c2ncc(CCOc3ccc(-c4ccc(CC(=O)O)cc4F)cc3C)cc2C(=O)N(C)c2cccnc21
> 7.30

Challenge: What measured pIC50 goes with CCN1c2ncc(CCOc3ccc(-c4cccnc4)cc3C)cc2C(=O)N(C)c2cccnc21 ?
Response given: > 7.30

Challenge: Name the recorded pIC50 for CCN1c2ncc(CCOc3ccc(-c4cc(C)[n+]([O-])c(C)c4)cc3C)cc2C(=O)N(C)c2cccnc21 .
Response given: > 7.30

Challenge: Can you share its pIC50? I mean this compound: CCN1c2ncc(CCOc3ccc(-c4ncccn4)cc3)cc2C(=O)N(C)c2cccnc21
Response given: < 7.00

---

# Test system: HIV-1 wild type
# METHOD DESCRIPTION: microbe, parasite or virus in culture
# Type: cell-based
# CONDITIONS: wild type; read-out: EC50 WT RT
READOUT KIND: EC50

Challenge: Return EC50 measured with HIV-1 wild type given this compound: CCN1c2ncc(CCOc3ccc(S(=O)(=O)Nc4ccc(C(=O)O)cc4)cc3C)cc2C(=O)N(C)c2cccnc21
Response given: > 50 nM

Challenge: Lab note: need EC50 with HIV-1 wild type for entry CCN1c2ncc(CCOc3ccc(-c4ccc(C(=O)O)cc4)cc3C)cc2C(=O)N(C)c2cccnc21 , please look it up.
Response given: < 10 nM

Challenge: Tell me reported EC50 for CCN1c2ncc(CCOc3ccc(-c4ccc(C(=O)O)cc4)cc3)cc2C(=O)N(C)c2cccnc21 , tested with HIV-1 wild type.
Response given: < 10 nM

Challenge: // fetch HIV-1 wild type EC50 for CCN1c2ncc(CCOc3ccc(-c4ccc(CC(=O)O)cc4)cc3C)cc2C(=O)Nc2c(C)ccnc21
Response given: 10 to 50 nM

Challenge: # query: EC50 | item CCN1c2ncc(CCOc3ccc(C(=O)Nc4ccc[n+]([O-])c4)cc3C)cc2C(=O)Nc2c(C)ccnc21 | system: HIV-1 wild type
Response given: < 10 nM

Challenge: I'm curious: which EC50 was measured for CCN1c2ncc(CCOc3ccc(-c4cccc(C(=O)O)c4)cc3)cc2C(=O)N(C)c2cccnc21 tested on HIV-1 wild type?
Response given: < 10 nM

Challenge: What is its EC50 for HIV-1 wild type? Entry: CCN1c2ncc(CCOc3ccc(-c4ccc(CC(=O)O)cc4)cc3)cc2C(=O)N(C)c2cccnc21
Response given: 10 to 50 nM

---

# System: HIV-1 wild type
# METHOD DESCRIPTION: microbe, parasite or virus in culture
# Type: cell-based
# CONDITIONS: Human immunodeficiency virus 1, read-out: EC50 WT RT (nM)
// values below are reported EC50

Examples with their reported EC50 follow.
CCN1c2ncc(CCOc3ccc(C(=O)NS(=O)(=O)c4ccccc4)cc3C)cc2C(=O)N(C)c2cccnc21 [Entry 3009]
10 to 50 nM
CCN1c2ncc(CCOc3ccc(C(=O)Nc4ccc(C(=O)O)cc4)cc3C)cc2C(=O)N(C)c2cccnc21 [Entry 3001]
< 10 nM
CCN1c2ncc(CCOc3ccc(Nc4ccc(C(=O)O)cc4)cc3C)cc2C(=O)N(C)c2cccnc21 [Entry 3022]
< 10 nM
CCN1c2ncc(CCOc3ccc(NC(=O)c4ccccc4C(=O)O)cc3C)cc2C(=O)N(C)c2cccnc21 [Entry 3033]
< 10 nM
CCN1c2ncc(CCOc3ccc(C(=O)Nc4ccc(CC(=O)O)cc4)cc3C)cc2C(=O)N(C)c2cccnc21 [Entry 3005]
< 10 nM

Challenge: For the record CCN1c2ncc(CCOc3ccc(C(=O)Nc4ccccc4C(=O)O)cc3C)cc2C(=O)N(C)c2cccnc21 [Entry 3011] , what value of EC50 is listed for HIV-1 wild type?
Response given: 10 to 50 nM

Challenge: # query: EC50 | item CCN1c2ncc(CCOc3ccc(-c4ccc(N)c(C(=O)O)c4)cc3C)cc2C(=O)N(C)c2cccnc21 [Entry 1034] | system: HIV-1 wild type
Response given: < 10 nM

---

# ASSAY TARGET: HIV-1 wild type reverse transcriptase (Human immunodeficiency virus type 1 group M subtype B, UniProt P03366)
# Construct: HIV-1 wild type reverse transcriptase
# METHOD DESCRIPTION: biochemical
# CONDITIONS: wild type RT; read-out: IC50 WT RT
# Method: Utilizing the Reverse Transcriptase (RT) Assay described below, compounds were tested for their ability to inhibit the RNA-dependent DNA polymerase activity of HIV-1 RT. Certain specific compounds described in the Examples and in Tables 1-4, were so tested. The results of this testing appear in Table 5 as ranges of IC50 (nM) and EC50 (nM). Reverse Transcriptase (RT) Assays
READOUT KIND: IC50

Study these solved cases before continuing.
CCN1c2ncc(CCOc3ccc(-c4ncccn4)cc3)cc2C(=O)N(C)c2cccnc21 [Entry 1061]
< 0.05 µM
CCN1c2ncc(CCOc3ccc(C(=O)c4ccc(C(=O)O)cc4)cc3C)cc2C(=O)N(C)c2cccnc21 [Entry 3027]
< 0.05 µM
CCN1c2ncc(CCOc3ccc(C(=O)Nc4cccc(CC(=O)O)c4)cc3C)cc2C(=O)N(C)c2cccnc21 [Entry 3010]
< 0.05 µM
CCN1c2ncc(CCOc3ccc(-c4ccc(C(=O)O)cc4)cc3C)cc2C(=O)N(C)c2cccnc21 [Entry 1003]
< 0.05 µM
CCN1c2ncc(CCOc3ccc(-c4cc(C)ccn4)cc3C)cc2C(=O)N(C)c2cccnc21 [Entry 1065]
< 0.05 µM
CCN1c2ncc(CCOc3ccc(N(Cc4ccc(C(=O)O)cc4)C(C)=O)cc3C)cc2C(=O)N(C)c2cccnc21 [Entry 4003]
0.05 to 0.1 µM
CCN1c2ncc(CCOc3ccc(-c4ccc(C)cc4)cc3C)cc2C(=O)N(C)c2cccnc21 [Entry 1105]
< 0.05 µM

Challenge: Any idea what its IC50 is? The compound is CCN1c2ncc(CCOc3ccc(-c4occc4C(=O)O)cc3)cc2C(=O)N(C)c2cccnc21 [Entry 1050]
Response given: > 0.1 µM
